Listing: Population Hoechst High Intensity Objects (%) of selected compounds
# Tested on: Fibroblast
# MEASUREMENT PROTOCOL: Multiplex assay against human fibroblast
# Assay type: toxicity, cell-based
# MEASUREMENT CONDITIONS: 24 h, 10 µM, compound concentration 10 uM, replicate 1
Write down the numeric answer in % and omit the unit.

> print(dat)
                                   compound  obs.value
1  CC(C)(O)CNc1ncc(-c2ccnc(Nc3ccnc(Cl)c3)n2)c(CC2CC2)n1          8

What Population Hoechst High Intensity Objects (%) value was documented for this compound, Cc1nc(Nc2n[nH]c3c2CN(C(=O)N[C@H](CN(C)C)c2ccccc2)C3(C)C)c2sccc2n1 [PF-03758309] ?
20

Can you handle C=CC(=O)Nc1cccc(C(=O)Nc2ccc(Nc3cc(-c4[nH]c(SC)nc4C)ccn3)cc2)c1 next?
13

Can you handle CNc1nc(NCc2ccc(NS(C)(=O)=O)cc2Cl)cc(-c2ccccn2)n1 next?
27

Can you handle C=CC(=O)Nc1cc2c(Nc3ccc(F)c(Cl)c3)ncnc2cc1OCCCN1CCOCC1.Cl.Cl [CANERTINIB DIHYDROCHLORIDE] next?
12

Can you handle Cc1csc2c(N[C@@H](C)CN3CCN(S(=O)(=O)c4ccc(Cl)c(Cl)c4)CC3)ncnc12 next?
23

Can you handle Cc1c(-c2ccc(O)cc2)n(Cc2ccc(OCCN3CCCCCC3)cc2)c2ccc(O)cc12 [BAZEDOXIFENE] next?
23
